Molecular target: Thromboxane-A synthase (Homo sapiens)
Sequence (P24557 whole entry): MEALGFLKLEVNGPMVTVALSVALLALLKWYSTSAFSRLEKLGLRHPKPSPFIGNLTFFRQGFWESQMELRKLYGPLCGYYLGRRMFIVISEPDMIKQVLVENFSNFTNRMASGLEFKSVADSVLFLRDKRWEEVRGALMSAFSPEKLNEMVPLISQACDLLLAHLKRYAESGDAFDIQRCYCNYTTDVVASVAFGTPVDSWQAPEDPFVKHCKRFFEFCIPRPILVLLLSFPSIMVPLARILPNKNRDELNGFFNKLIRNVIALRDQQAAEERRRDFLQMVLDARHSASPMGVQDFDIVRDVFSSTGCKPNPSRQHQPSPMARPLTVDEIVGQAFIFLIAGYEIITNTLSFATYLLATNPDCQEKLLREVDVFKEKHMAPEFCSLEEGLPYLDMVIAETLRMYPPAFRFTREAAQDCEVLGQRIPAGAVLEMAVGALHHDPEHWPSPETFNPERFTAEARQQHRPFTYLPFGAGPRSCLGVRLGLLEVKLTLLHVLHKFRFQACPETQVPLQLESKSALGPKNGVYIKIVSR
Known log10 of IC50 of a selection of compounds
Scale: log10; quantity: IC50; unit before log: nM

Worked cases, log10 of IC50 given:
>>> test_value("O=C(O)COc1ccc(Cn2ccnc2)cc1")
1.49
>>> test_value("O=C(O)c1cc2ccc(Cn3ccnc3)cc2s1")
1.26
>>> test_value("O=C(O)c1cc2cc(Cn3ccnc3)ccc2o1")
1.53
>>> test_value("O=C(O)c1csc2ccc(Cn3ccnc3)cc12")
3.23
>>> test_value("Cc1c(C(=O)O)sc2cc(OCCn3ccnc3)ccc12")
2.15
>>> test_value("O=C(O)c1cc2cc(Cn3ccnc3)ccc2s1")
1.32

Record summary for O=C(O)c1cc2cc(OCCn3ccnc3)ccc2s1 : reported log10 of IC50 = 2.62

Record summary for O=C(O)c1cc2cccc(Cn3ccnc3)c2s1 : reported log10 of IC50 = 2.08

Record summary for COc1cc(Cn2ccnc2)cc2sc(C(=O)O)cc12 : reported log10 of IC50 = 0.70
